Provenance of the data: patent US10278957B2

- experimental-protocol: SIF assay (stability in simulated intestinal fluid)
- Assay type: in vitro ADME
- run-parameters: simulated intestinal fluid (SIF) with pancreatin; simulated intestinal fluid, pH 6.8, pancreatin, 37° C., 20 μM
Square brackets hold non-standard residues; d marks the D form. Peptide text beside a SMILES is read from it. Dmt = Cc1cc(O)cc(C)c1C[C@H](N)C(=O)O; β3hF = N[C@H](CC(=O)O)Cc1ccccc1
readout: half-life at 20 μM

Please look up its half-life at 20 μM: `Cc1cc(C(N)=O)cc(C)c1C[C@H](N)C(=O)N[C@H](C)C(=O)NCC(=O)N[C@H](CC(=O)N(C)[C@H](C(=O)O)c1ccccc1)Cc1ccccc1`
> 24 h

Another molecule to look at: `Cc1cc(C(N)=O)cc(C)c1C[C@H](N)C(=O)N[C@H](C)C(=O)NCC(=O)N[C@H](CC(=O)N(C)[C@@H](Cc1ccc(O)cc1)C(=O)O)Cc1ccccc1`
> 24 h

Another molecule to look at: Cc1cc(O)cc(C)c1C[C@H](N)C(=O)N[C@H](CC(=O)O)C(=O)NCC(=O)N[C@H](CC(=O)NCC(N)=O)Cc1ccccc1 [compound 179] (H-[Dmt][dD]G[β3hF]G-NH2)
> 24 h

Another molecule to look at: `C[C@@H](NC(=O)[C@@H](N)Cc1ccc(O)c(F)c1)C(=O)NCC(=O)N[C@H](CC(=O)N(C)CC(N)=O)Cc1ccccc1`
6 to 24 h

Another molecule to look at: `Cc1cc(O)cc(C)c1C[C@H](N)C(=O)N[C@H](C)C(=O)NCC(=O)N[C@H](CC(=O)NCC(N)=O)Cc1ccccc1`
> 24 h

Another molecule to look at: `CCCC[C@@H](C(=O)O)N(C)C(=O)C[C@H](Cc1ccccc1)NC(=O)CNC(=O)[C@@H](C)NC(=O)[C@@H](N)Cc1c(C)cc(C(N)=O)cc1C`
> 24 h

Another molecule to look at: `CCCC[C@@H](C(=O)O)N(C)C(=O)C[C@H](Cc1ccccc1C)NC(=O)CNC(=O)[C@@H](C)NC(=O)[C@@H](N)Cc1c(C)cc(O)cc1C`
6 to 24 h

Another molecule to look at: `Cc1cc(O)cc(C)c1C[C@H](N)C(=O)N[C@H](CC(=O)O)C(=O)NCC(=O)N[C@H](CC(=O)N(C)CC(N)=O)Cc1ccccc1`
> 24 h

Another molecule to look at: `CCCC[C@@H](C(=O)O)N(C)C(=O)C[C@H](Cc1ccc(F)cc1)NC(=O)CNC(=O)[C@@H](C)NC(=O)[C@@H](N)Cc1c(C)cc(C(N)=O)cc1C`
> 24 h

Another molecule to look at: `C[C@@H](NC(=O)[C@@H](N)Cc1ccc(O)c(C(C)(C)C)c1)C(=O)NCC(=O)N[C@H](CC(=O)N(C)CC(N)=O)Cc1ccccc1`
6 to 24 h

Another molecule to look at: `C[C@@H](NC(=O)C[C@@H](N)Cc1ccc(O)cc1)C(=O)NCC(=O)N[C@H](CC(=O)N(C)CC(N)=O)Cc1ccccc1`
6 to 24 h

Another molecule to look at: `Cc1cc(C(N)=O)cc(C)c1C[C@H](N)C(=O)N[C@@H](C(=O)NCC(=O)N[C@H](CC(=O)N(C)CC(N)=O)Cc1ccccc1)[C@H](C)O`
> 24 h
